Give measured Plaque index for each item. Keep answers brief.
test system: plaque; experiment: Plaque-index on test persons after mouth rinsing; assay type: in vivo; details: rinsing with 10 ml of 1,1 mM solution 3 times daily for 3 days; scale 0 (no plaque) to 3 (clearly visible plaque marginally)

CCCCCC(C)NC(=N)NC(=N)NCCCCCCNC(=N)NC(=N)NC(C)CCCCC.Cl.Cl (stereo not shown) | 0,27

Consider the following items and state reported Plaque index for each.
1. CCCCC(CC)CNC(=N)NC(=N)NCCCCCCNC(=N)NC(=N)NCC(CC)CCCC (stereo not shown) [Compound 9, reference compound]
2. N=C(NCCCCCCNC(=N)NC(=N)NC1CC2CCC1C2)NC(=N)NC1CC2CCC1C2 (stereo not shown)
3. CC(C)CCC(C)NC(=N)NC(=N)NCCCCCCNC(=N)NC(=N)NC(C)CCC(C)C.Cl.Cl (stereo not shown)

1: 0,52; 2: 0,50; 3: 0,70
